# growth per record follows
tested on: HS 578T breast; assay: NCI-60 one-dose screen, 48 h (100 = growth as untreated, 0 = no growth, -100 = all killed); conditions: 10 µM unless noted
This is part of a sample that, as a whole, favours compounds with a hit. Of some 83,000 tested, about 20% had one in any assay.
parameter: growth (%)

1. O=C(N/N=C/c1ccc(O)cc1O)c1cccnc1: 71.6
2. CCCNc1nc(SC)nc(-c2cccc(N)c2)c1C#N: 93.1
3. Cc1csc2ccc(Cl)cc12: 104
4. COc1ccc(S(=O)(=O)NCCNc2nccc(-c3c(-c4cccc([N+](=O)[O-])c4)nc4sccn34)n2)cc1: 91.1
5. CC[C@]12C=CCN3CC[C@@]4(c5ccc(OC)cc5N(C)[C@H]4[C@@](O)(C(=O)OC)[C@@H]1OC(=O)CCC(=O)N[C@@H](Cc1c[nH]c4ccccc14)C(=O)OC)[C@@H]32: 79.4

====

Test system: IGROV1 ovarian
Test: NCI-60 one-dose screen, 48 h (100 = growth as untreated, 0 = no growth, -100 = all killed)
Details: 10 µM unless noted
Method: Growth inhibition of the IGROV1 human tumor cell line is measured as a screen for anti-cancer activity. Cells are grown in 96 well plates and exposed to the test compound for 48 hours. Compounds are tested at a single concentration, which is 10^-5 M for most compounds. The reported endpoint is percent growth (GI% or GIPRCNT), where numbers from 0 - 100% represent growth inhibition, and numbers from -100% - 0 represent cell death. For example, a value of 40 represents 60% growth inhibition. […]
Compounds without any hit were thinned out: in the full panel of roughly 83,000, 20% have a hit.
parameter: growth (%)

1. Cc1ccc(SCN2CCN(c3cccc(Cl)c3)CC2)cc1: 80.4
2. CCCCCCCCCCCCCCCCCCNC(=O)[C@H]1CSC(c2ccc(F)c(OC)c2)N1 (some centres undefined): -6.12
3. Nc1ccc(N2CCOCC2)cc1: 105
4. O=C1C=CC(=O)c2c1nc1n2CCCC1: 103
5. COc1ccc(CNc2nccnn2)cc1: 101
6. CCOC(=O)/C=C/C(=O)[C@H](CC(C)C)NC(=O)[C@H](Cc1ccccc1)NC(=O)OCc1ccccc1: 75.6
7. O=C1OC2C(I)C3CC2C1C3c1ccccc1 (centres undefined): 111
8. O=C(Nc1cccc2[nH]c(C(F)(F)F)nc12)c1ccc(Br)cc1F: 42.2
9. CC1=NNC(=O)C1C (centres undefined): 106
10. COc1ccc(C/C(C)=C(\c2ccc(Cl)cc2)c2ccc(OCCN3CCCCCC3)cc2)cc1: 78.1
11. NS(=O)(=O)N(c1cc(C(F)(F)F)cc(C(F)(F)F)c1)C1CCN(Cc2ccc(F)cc2)CC1: 61.9
12. c1ccc(Sc2ncnc3ccccc23)cc1: 77.9
13. COc1ccc2nc(NC(=O)c3cccnc3Nc3cc(OC)c(OC)c(OC)c3)sc2c1: 68.6
14. O=C(O)c1ccc(=O)[nH]n1: 137
15. c1ccc(-c2nc(N3CCOCC3)c3c4c(sc3n2)CCCCC4)nc1: 24
16. CN(C)c1ccc(/C=C(\C#N)c2nc3ccccc3s2)cc1: 103
17. O=C1Nc2c(ccc(Cl)c2Cl)/C1=C/c1cc(Br)c(O)c(Br)c1: 47
18. Cc1nc2sc(C(=O)Nc3cccc4c3OCCO4)c(N)c2cc1C(C)O (centres undefined): 49
19. COC(/C=C/c1ccc([N+](=O)[O-])cc1)OC: 89
